- Tested on: L1210 leukemia ip in BDF1 mice, survival T/C
- TEST_METHOD_NOTES: NCI In Vivo Anticancer Drug Screen. Data for tumor model L1210 Leukemia (intraperitoneal) in B6D2F1 (BDF1) mice
- CONDITION_CONTEXT: endpoint: mean survival time; dose: 100.0 mg/kg/injection; schedule: Q01DX009 (ip); vehicle: saline with Tween-80; higher = longer survival
Toxic doses and inconclusive results are not listed. Peptide text beside a SMILES is read from it. * marks the point of attachment. Bz = O=C(c1ccccc1)*
Measured T/C of individual entries

Check out these entries, answers already filled in.
| MOLECULE | MEASURED_ENDPOINT | TEST_VALUE |
| --- | --- | --- |
| COC(=O)CNC(=O)CNC(=O)c1ccccc1 (Bz-Gly-Gly-OMe) | T/C | 89 % of control |
| C=CCC/C(=C/C(=O)OCC)OCC=C | T/C | 114 % of control |
| O=C1c2ccccc2CCC1C1(O)C(=O)Nc2ccccc21 (stereo unspecified) | T/C | 101 % of control |

Fill blank: measured T/C of the molecule CC(=O)NC1CCCC(C)C1 (stereo unspecified) is ____. 101 % of control

Cool, now `O=C(CNC(=O)c1ccccc1)N/N=C/c1ccncc1` 86 % of control

Likewise for CCOC(=O)C12CC=CC(CCC1)C2=O (stereo unspecified) (tested in a mixture with another compound) ? 112 % of control

What do you have for `CCCCCCCCCCCCOc1ccccc1` ? 92 % of control

And `CC(C)(c1ccc(OCCO)cc1)c1ccc(OCCO)cc1` ? 97 % of control

Lookup `CCOC(=O)/C=C/Oc1cc(Cl)c(Cl)cc1Cl` 110 % of control

For `O=C(O)c1cc(-c2cccc(C(F)(F)F)c2)nc2c(C(F)(F)F)cccc12` then? 96 % of control

Would you mind doing `Brc1cscc1-c1c2ccccc2cc2ccccc12` as well? 98 % of control

Next up: `CC(C)(CBr)COC(=O)Nc1ccc2ccccc2c1` 95 % of control

Next: `CCOc1cc(-c2nc(-c3ccc(N=Cc4ccc(N(CCCOS(C)(=O)=O)CCCOS(C)(=O)=O)cc4)cc3)cs2)ccc1OCc1ccccc1` 92 % of control

And for `O=C(Nc1nccs1)Nc1ccccc1C(F)(F)F` ? 100 % of control

Same lookup for CC1(c2ccco2)NC(=O)NC1=O (stereo unspecified) , please. 91 % of control

Also O=C1CCC(C(=O)O)N1 (stereo unspecified) , if possible. 94 % of control

Next record, please: `CC(=O)Nc1ccc(NC(C)=O)c2c1C(=O)c1ccccc1C2=O` 94 % of control

Also, `CCCCCCCCCC(=O)NN1CCOCC1` please. 105 % of control

// query: CCCCNC(C)(C)C(SC(C)=O)c1ccc(Cl)cc1 (stereo unspecified) 89 % of control

Now try `CC(C)/C=N\NC(=O)c1ccc[n+](C)c1` . 92 % of control

Repeat with `O=C(Nc1cccc(F)c1)Nc1ncccn1` 90 % of control

Values from PubChem BioAssay AID248
